Where do these numbers come from? They come from ChEMBL document CHEMBL1157539.

tested on: Plasmodium falciparum; experiment: GSK_TCMDC: Inhibition of Plasmodium falciparum Dd2 in whole red blood cells, using parasite LDH activity as an index of growth. Test compounds present at 2uM; assay type: functional
// values below are reported Inhibition

# Compound, Unit, Inhibition
data = [
    ("CC(C)CCN1CCC(Oc2ccc(NC(=O)c3cccs3)cc2Cl)C1.O=C(O)C(F)(F)F (stereo not given)", "%", 93),
    ("CN1CCC(COc2ccc(CN3CCC(NC(=O)c4cccc(Cl)c4)CC3)cc2)CC1.O=C(O)C(F)(F)F", "%", 13),
    ("CCOC(=O)c1sc(C(C)Nc2ccccc2)nc1-c1ccccc1 (stereo not given)", "%", 91),
    ("O=C(COc1cnc2ccccc2n1)Nc1ccccc1Sc1ccc(Cl)cc1", "%", 100),
    ("COc1ccccc1/C=C/C(=O)NCCC1CCN(CCCCCNC(=O)/C=C/c2ccc(Cl)c(Cl)c2)CC1", "%", 0),
    ("CCOC(=O)C(NC(=O)c1ccc([N+](=O)[O-])o1)C(C)C (stereo not given)", "%", 8),
    ("CCCCC1(c2ccc(F)cc2)NC(=O)N(CC(=O)c2cc(C)n(Cc3ccco3)c2C)C1=O (stereo not given)", "%", 28),
    ("COc1ccc2nccc([C@@H](O)CN3CCC(NC(=O)c4cc5c(F)cc(F)cc5[nH]4)CC3)c2n1", "%", 74),
    ("CNC(=O)C1Cc2c([nH]c3ccc(Br)cc23)C2(CCN(CCc3ccccc3)CC2)N1 (stereo not given)", "%", 60),
    ("CN1CCN(CCNc2c3ccccc3nc3c2ccc2ccccc23)CC1.Cl", "%", 66),
]
